- Tested on: OVCAR-4 ovarian
- EXPERIMENT SUMMARY: NCI tumour cell line growth inhibition, 48 h
ASSAY METRIC: TGI

// query Output measured TGI for this item: CC(C)(CO)N1CCN(C(=S)Nc2ccccc2)CC1
// result > 100 µM

// query Output measured TGI for this item: CCOCc1c(C)cc(C)c(C2C(C(=O)c3ccccc3)N3c4ccccc4C=CC3C2(C#N)C(=O)OCC)c1C (configuration not stated)
// result > 100 µM

// query Output measured TGI for this item: N#C/C(=C\c1ccc2ccccc2c1)c1ccccc1
// result 69.1 µM

// query Output measured TGI for this item: CN(CCC(=O)O)C1=Nc2ccc(Cl)cc2C(c2ccccc2)=[N+]([O-])C1
// result > 100 µM

// query Output measured TGI for this item: Nc1cccc(S(=O)(=O)NCC(=O)O)c1
// result > 100 µM

###

- System: OVCAR-4 ovarian
- EXPERIMENT SUMMARY: NCI tumour cell line growth inhibition, 48 h
ASSAY METRIC: GI50

Known GI50 results, listed for orientation:
Cc1ccc(C(=O)NC(C)C)cc1-c1ccc(C(=O)NCC2CC2)cc1 = > 25000 nM
CCCn1c(=S)sc2c1nc(C)n1c(Nc3ccccc3)nnc21 = 3460 nM
OCCCNc1nc(=S)[nH]c2[nH]ncc12 = 53700 nM
COc1ccc(-c2nc(-c3nc4ccc(Cl)cc4[nH]3)c3ccccn23)cc1 = 1890 nM

// query For OVCAR-4 ovarian, give the measured GI50 of the entry Cc1cc2c(cc1Cl)SC1=NN(C)S(=O)N1S2(=O)=O (configuration not stated)
// result > 100000 nM

// query For OVCAR-4 ovarian, give the measured GI50 of the entry CC1(C)OC2=C(CC1Br)C(=O)C(=O)c1ccccc12 (configuration not stated)
// result 1670 nM

// query For OVCAR-4 ovarian, give the measured GI50 of the entry COc1ccc2c(c1)CCCN2c1c2ccccc2nc2ccccc12
// result 812 nM

###

- System: COLO 205 colon
- EXPERIMENT SUMMARY: NCI tumour cell line growth inhibition, 48 h
Reported TGI by item:

Known TGI results, listed for orientation:
O=C(O)C(=Cc1ccc(-c2ccccc2)cc1)C(=O)O = 25.1 µM
O=C(O)COCC(=O)N(CCOCCN(Cc1ccccc1)C(=O)COCC(=O)O)Cc1ccccc1 = > 100 µM
CC(C)(C)/C(=N\Nc1nc2ccccc2[nH]1)c1ccccn1 = > 100 µM
O=c1oc2ccccc2cc1-c1csc(Nc2ccc(F)cc2)n1 = 14.9 µM
N#C/C(=C\c1ccc2ccccc2c1)c1ccccc1 = 35.9 µM
COC(=O)c1cc2c(cc1CC1Cc3cc4c(cc3C1=O)CCC4)CCC2 (centres undefined) = > 100 µM

// query Output measured TGI for this item: O=C(Nc1ccncc1)C(=O)c1cn(S(=O)(=O)c2cccc(F)c2)c2ccccc12
// result > 100 µM

// query Output measured TGI for this item: NC(=O)COC(=O)c1c(Cl)nc2sccn12
// result > 100 µM

###

Reported GI50 by item:
- System: EKVX NSCLC
- EXPERIMENT SUMMARY: NCI tumour cell line growth inhibition, 48 h

Known GI50 results, listed for orientation:
Cc1ccc2c(c1)Sc1c(ccc3ccccc13)N2 = > 100 µM
COc1ccc(C(=O)C#Cc2cnc(OC)nc2OC)cc1 = 23700 µM
CCCCCCCC[C@@H](O)CC(=O)N[C@@H](CC(N)=O)C(=O)N[C@@H](CCC(N)=O)C(=O)N[C@@H](CC(=O)c1cc(C)cc(O)c1C(=O)c1c(O)cccc1O)CC(C)C = 3.35 µM
O=C(O)/C=C(\c1nc2ccc([N+](=O)[O-])cc2[nH]1)c1cc(Cl)ccc1O = 2.44 µM

Now take the following compound into account.
// query Output measured GI50 for this item: CC1(C)OC2=C(CC1Br)C(=O)C(=O)c1ccccc12 (stereo not given)
// result 1.71 µM

###

- Test system: MALME-3M melanoma
- EXPERIMENT SUMMARY: NCI tumour cell line growth inhibition, 48 h
Reported TGI by item:
Hi! Could you send only the number? It should be in µM, unit omitted.

CCC(C)(C)C1CCC2c3c([nH]c4ccccc34)C3C(=O)N(c4ccc(OC)cc4)C(=O)C3C2C1 (stereo unspecified) = 63
O=C(Nc1ccc(-c2nc(N3CCOCC3)c3cccn3n2)cc1)Nc1cccnc1 = 0.471

// query Output measured TGI for this item: Cc1ccc(-c2nc3nc(-c4ccccc4)nc(N4CCCNCC4)c3o2)cc1
// result 3.38

// query Output measured TGI for this item: OC1(c2ccc(Cl)cc2)C(N2CCCC2)c2ccccc2C2=NCCN21 (stereo unspecified)
// result 36.9

###

- Test system: CAKI-1 renal
- EXPERIMENT SUMMARY: NCI tumour cell line growth inhibition, 48 h; in the data active = GI50 below about 0.43 µM; inactive = the rest
Just give me one of these, please: active, inactive

Record excerpt, results attached:
Cc1ccc(C(=O)NC(C)C)cc1-c1ccc(C(=O)NCC2CC2)cc1 = inactive
CS(=O)(=O)c1ccc(-n2nc(C(F)(F)F)cc2OC2CCCC2)cc1 = inactive
C=C(C[C@](O)(C(=O)/C=C/c1ccc(Cl)cc1)C(=O)OC)c1ccccc1 = inactive

// query Returns: the outcome recorded for O=C(Nc1ccc(-c2nc(N3CCOCC3)c3cccn3n2)cc1)Nc1cccnc1 in this assay.
// result active

###

- Tested on: RPMI-8226 leukemia
- EXPERIMENT SUMMARY: NCI tumour cell line growth inhibition, 48 h
The threshold is inclusive: TGI of exactly 40 µM counts as Met; values below receive Not met.

Record excerpt, results attached:
CS(=O)(=O)c1ccc(-n2nc(C(F)(F)F)cc2OC2CCCC2)cc1 = Met
O=C1N=C(SC2OC(CO)C(O)C(O)C2O)S/C1=C\c1ccccc1 (stereo unspecified) = Met
CCc1ccccc1NC(=O)C1=C(C)NC(C)=C(C(=O)Nc2ccccc2CC)C1c1ccc2c(c1)OCO2 = Met
COc1cc(/C=C2/SC(c3ccccc3)N(c3ccccc3Cl)C2=O)cc(OC)c1OC (stereo unspecified) = Met
Cc1cc(Cl)cc2c1NC(=O)C2(O)CC(=O)c1ccco1 (stereo unspecified) = Met
CCOC(=O)C1(Cc2ccccc2)C=CN(C(=O)c2ccccc2)C=C1 = Met
Nc1nc(Cl)c(CO)c(NCC2(CO)CC(CCc3ccccc3)C2)n1 (stereo unspecified) = Not met
Nc1nc2c(nnn2C2CC(O)C(CO)O2)c(=O)[nH]1 (stereo unspecified) = Met
O=c1oc2ccccc2cc1-c1csc(Nc2ccc(F)cc2)n1 = Not met
CCC[CH2][Sn]1([CH2]CCC)[O]C(=O)CN=Cc2c(ccc3ccccc23)[O]1 = Not met

// query Is it the case that O=c1cc(-c2ccccc2)oc2cc(OC/C(=N/O)c3ccccc3)ccc12 has TGI reaching or exceeding 40 µM?
// result Met

// query Is it the case that Ic1ccc2c(c1)N(c1ccccc1)c1cc(N=c3ccc4nc5ccc(I)cc5n(-c5ccccc5)c-4c3)ccc1N2 has TGI reaching or exceeding 40 µM?
// result Met

// query Is it the case that O=[N+]([O-])c1ccc2c(c1)S(=O)(=O)N1Cc3ccccc3CCN21 has TGI reaching or exceeding 40 µM?
// result Met

// query Is it the case that O=C(O)C(CS)Nc1c2ccccc2nc2ccccc12 (stereo unspecified) has TGI reaching or exceeding 40 µM?
// result Met

###

Reported TGI by item:
- Tested on: HOP-92 NSCLC
- EXPERIMENT SUMMARY: NCI tumour cell line growth inhibition, 48 h

// query Output measured TGI for this item: CCOC(=O)N(NC(=O)NC(C)C)c1ccccc1
// result > 100 µM

###

- System: ACHN renal
- EXPERIMENT SUMMARY: NCI tumour cell line growth inhibition, 48 h
Reported TGI by item:
Hi! Could you send only the number? It should be in µM, unit omitted.

O=C(O)C(=Cc1ccc(-c2ccccc2)cc1)C(=O)O = 60.1

Now take the following compound into account.
// query Output measured TGI for this item: CC(C)(C)OC(=O)CN1C(=O)CC1CC(=O)c1ccccc1 (stereo not given)
// result 41.7

###

- Tested on: NCI/ADR-RES ovarian
- EXPERIMENT SUMMARY: NCI tumour cell line growth inhibition, 48 h
Reported TGI by item:
Hi! Could you send only the number? It should be in µM, unit omitted.

CC/C=C\C[C@@H](O)C/C=C1/C(=O)C=C[C@H]1C/C=C\CCCC(=O)OC = 19.7
COc1ccc2c(c1)-c1nc(=S)n(CCCN(C)C)c3ccc([N+](=O)[O-])c(c13)N2 = 9.23
CCCCCCCCCCCCN(CC(O)C(O)C(OC1OC(CO)C(O)C(O)C1O)C(O)CO)C(=O)CCCCCCCCCCC (configuration not stated) = 49.7

// query For NCI/ADR-RES ovarian, give the measured TGI of the entry O=S(=O)(NC1=NCCN1C(=S)SN1CCn2c1nsc2=S)c1cccc(Cl)c1
// result 69.3

// query For NCI/ADR-RES ovarian, give the measured TGI of the entry CS(=O)(=O)c1ccc(-n2nc(C(F)(F)F)cc2OC2CCCC2)cc1
// result 81.8

// query For NCI/ADR-RES ovarian, give the measured TGI of the entry CC1(C)OC2=C(CC1Br)C(=O)C(=O)c1ccccc12 (configuration not stated)
// result 5.22
